Target: orexin-1 (Homo sapiens (Human))
Sequence (O43613 whole entry): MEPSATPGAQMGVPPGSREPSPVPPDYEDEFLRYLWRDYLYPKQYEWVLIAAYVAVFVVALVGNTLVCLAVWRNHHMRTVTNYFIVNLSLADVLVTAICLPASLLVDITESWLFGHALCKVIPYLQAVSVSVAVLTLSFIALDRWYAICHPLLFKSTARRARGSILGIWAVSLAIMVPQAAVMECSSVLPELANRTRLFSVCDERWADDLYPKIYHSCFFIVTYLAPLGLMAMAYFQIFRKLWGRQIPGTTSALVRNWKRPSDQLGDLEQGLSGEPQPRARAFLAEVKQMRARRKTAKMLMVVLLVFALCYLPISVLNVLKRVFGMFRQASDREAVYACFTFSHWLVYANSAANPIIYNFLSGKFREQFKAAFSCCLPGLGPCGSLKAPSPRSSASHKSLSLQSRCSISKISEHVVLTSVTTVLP
Assay: Intracellular calcium measurement (FLIPR), CHO cells expressing human orexin-1 receptor, 3 nM orexin-A
Type: cell-based
Details: CHO cells expressing human orexin-1 receptor, FLIPR, 3 nM orexin-A; geometric mean if determined several times; read-out: IC50 OX1
pIC50: −log10 of the molar value.
property-name: pIC50

In the examples that follow, each entry is paired with its recorded pIC50.
O=C(c1ccccc1-n1nccn1)N1CCC[C@H]1c1nc(-c2ccccc2OC(F)(F)F)no1: 7.23
CCOc1c(F)cccc1-c1noc([C@@H]2CCCN2C(=O)c2ccc(C)cc2-n2nccn2)n1: 7.36
COc1cc(C(=O)N2CCC[C@H]2c2nnc(-c3cccc(Cl)c3OC)[nH]2)c(-n2nccn2)cc1Cl: 7.48
Cc1ccc(-n2nccn2)c(C(=O)N2CCC[C@H]2c2nc(-c3cccc4c3OCCO4)no2)c1: 7.64
Cc1ccc(C(=O)N2CCC[C@H]2c2nc(-c3ccccc3OC(F)(F)F)no2)c(-n2nccn2)c1: 7.51
COc1ccc(C)c(-c2nc([C@@H]3CCCN3C(=O)c3cc(C)c(C)cc3-n3nccn3)no2)c1: 7.52

P. CCc1ccccc1-c1nnc([C@@H]2CCCN2C(=O)c2cc(C)ccc2-n2nccn2)[nH]1
Q. COc1ccc2[nH]cc(-c3noc([C@@H]4CCCN4C(=O)c4cc(C)ccc4-n4nccn4)n3)c2c1
## Task Field: entry with larger pIC50 (options P / Q ). Select an item and report its label.
## Result Q
(Q: 6.95, P: 6.19)

a. CCOc1ncccc1-c1cc([C@@H]2CCCN2C(=O)c2cc(C)ccc2-n2nccn2)on1
b. COc1cccc(-c2nnc([C@@H]3CCCN3C(=O)c3cc(C)ccc3-n3nccn3)[nH]2)c1
## Task Among a and b , which shows a numerically higher pIC50 result? Respond using the label that marks the chosen record.
## Result a

I. CCc1ccccc1-c1nc([C@@H]2CCCN2C(=O)c2cc(C)c(C)cc2-n2nccn2)no1
II. Cc1cc(C(=O)N2CCC[C@H]2c2nc(-c3ccccc3OC(F)F)no2)c(-n2nccn2)cc1C
## Task For the two items I and II , which reports the higher pIC50 value? // output: label of the selected item
## Result I
(I: 8.15, II: 7.70)

I. COc1c(F)cccc1-c1noc([C@@H]2CCCN2C(=O)c2cccc(F)c2-c2ccn[nH]2)n1
II. COc1cc(C(=O)N2CCC[C@H]2c2noc(-c3cccc(F)c3OC)n2)c(-n2nccn2)cc1C
## Task Consider entries I and II . Which has the numerically lower pIC50? Please respond with the label that marks your chosen entry.
## Result I

P. Cc1ccc(-n2nccn2)c(C(=O)N2CCC[C@H]2c2nc(-c3ccc4c(c3)OCO4)no2)c1
Q. Cc1c(F)cccc1-c1noc([C@@H]2CCCN2C(=O)c2ccccc2-n2nccn2)n1
## Task Smaller pIC50 value? Options are P and Q Select an item and report its label.
## Result P

a. COc1cccc(-c2noc([C@@H]3CCCN3C(=O)c3cc(C)ccc3-n3nccn3)n2)c1OC
b. COc1cc(C(=O)N2CCC[C@H]2c2cc(-c3ccccc3OC(F)(F)F)on2)c(-n2nccn2)cc1C
## Task Which value of pIC50 is smaller, the one for a or the one for b ? Write the label of whichever entry you select.
## Result a
(a: 5.92, b: 7.31)

I. Cc1ccc(-n2nccn2)c(C(=O)N2CCC[C@H]2c2cc(-c3ccccc3OC(F)(F)F)n[nH]2)c1
II. CCOc1ncccc1-c1noc([C@@H]2CCCN2C(=O)c2cc(C)ccc2-c2ncco2)n1
III. Cc1cc(C(=O)N2CCC[C@H]2c2noc(-c3cccc(C)c3C)n2)c(-n2nccn2)cc1C
IV. COc1ccc(C)cc1-c1nc([C@@H]2CCCN2C(=O)c2cc(C)ccc2-n2nccn2)no1
V. CCOc1ncccc1-c1nnc([C@@H]2CCCN2C(=O)c2cc(C)c(C)cc2-n2nccn2)[nH]1
## Task Hey, can you sort those compounds up there by pIC50, smallest first? Form entry: labels listed in requested order.
## Result I, IV, III, II, V

P. Cc1ccc(-n2nccn2)c(C(=O)N2CCC[C@H]2c2cc(-c3ccccc3)on2)c1
Q. COc1ccccc1-c1nnc([C@@H]2CCCN2C(=O)c2cc(C)c(C)cc2-n2nccn2)[nH]1
## Task // which entry has the larger pIC50 value, P or Q ? Record your answer as the label of the chosen record.
## Result Q

These entries and their values trace back to patent US9493446B2.
